Please provide measured EC50 for the entries that follow.
- measurement_target: Kappa-type opioid receptor (Homo sapiens)
- Sequence (P41145 whole entry): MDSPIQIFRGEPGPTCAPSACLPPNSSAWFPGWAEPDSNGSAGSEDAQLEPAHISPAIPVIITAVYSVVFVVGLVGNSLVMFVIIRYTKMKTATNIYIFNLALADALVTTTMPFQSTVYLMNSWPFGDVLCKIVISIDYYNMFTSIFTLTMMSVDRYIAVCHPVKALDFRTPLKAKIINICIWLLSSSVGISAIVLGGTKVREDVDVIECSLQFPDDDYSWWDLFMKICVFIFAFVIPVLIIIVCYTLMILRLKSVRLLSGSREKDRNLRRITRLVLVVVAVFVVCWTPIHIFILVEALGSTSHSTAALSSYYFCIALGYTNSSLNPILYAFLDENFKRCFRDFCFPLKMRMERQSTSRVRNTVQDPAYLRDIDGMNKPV
- assay_protocol: Agonist activity at human KOR expressed in CHO cells assessed as inhibition of forskolin-induced cAMP accumulation after 30 mins by luminescence assay
Answers are plain numbers, in nM.

Guide cases for EC50, answers given:
COC(=O)[C@@H]1C[C@H](OC(C)=O)C(=O)[C@H]2[C@@]1(C)CC[C@H]1C(=O)O[C@H](c3ccoc3C#Cc3ccccc3)C[C@]21C	100
COC(=O)[C@@H]1C[C@H](OC(C)=O)C(=O)[C@H]2[C@@]1(C)CC[C@H]1C(=O)O[C@H](c3ccoc3-c3cccc(OC)c3)C[C@]21C	8.6
COC(=O)[C@@H]1C[C@H](OC(C)=O)C(=O)[C@H]2[C@@]1(C)CC[C@H]1C(=O)O[C@H](c3ccoc3-c3ccc4ccccc4c3)C[C@]21C	25
COC(=O)[C@@H]1C[C@H](OC(C)=O)C(=O)[C@H]2[C@@]1(C)CC[C@H]1C(=O)O[C@H](c3ccoc3-c3ccccc3F)C[C@]21C	1.2
COC(=O)[C@@H]1C[C@H](OC(C)=O)C(=O)[C@H]2[C@@]1(C)CC[C@H]1C(=O)O[C@H](c3ccoc3C#Cc3ccccc3C(F)(F)F)C[C@]21C	430
COC(=O)[C@@H]1C[C@H](OC(C)=O)C(=O)[C@H]2[C@@]1(C)CC[C@H]1C(=O)O[C@H](c3ccoc3C3CC3)C[C@]21C	1
COC(=O)[C@@H]1C[C@H](OC(C)=O)C(=O)[C@H]2[C@@]1(C)CC[C@H]1C(=O)O[C@H](c3ccoc3C)C[C@]21C	0.41
COC(=O)[C@@H]1C[C@H](OC(C)=O)C(=O)[C@H]2[C@@]1(C)CC[C@H]1C(=O)O[C@H](c3ccoc3-c3cccc([N+](=O)[O-])c3)C[C@]21C	450
COC(=O)[C@@H]1C[C@H](OC(C)=O)C(=O)[C@H]2[C@@]1(C)CC[C@H]1C(=O)O[C@H](c3ccoc3-c3cccc(F)c3)C[C@]21C	12
COC(=O)[C@@H]1C[C@H](OC(C)=O)C(=O)[C@H]2[C@@]1(C)CC[C@H]1C(=O)O[C@H](c3ccoc3C(F)(F)F)C[C@]21C	31

Quick batch: EC50 for everything below.
1. COC(=O)[C@@H]1C[C@H](OC(C)=O)C(=O)[C@H]2[C@@]1(C)CC[C@H]1C(=O)O[C@H](c3ccoc3C#CCCCO)C[C@]21C
2. COC(=O)[C@@H]1C[C@H](OC(C)=O)C(=O)[C@H]2[C@@]1(C)CC[C@H]1C(=O)O[C@H](c3ccoc3-c3ccccc3OC)C[C@]21C

**A:**
1. 890
2. 10

---

- measurement_target: Mu-type opioid receptor (Homo sapiens, UniProt P35372)
- Sequence (P35372 whole entry): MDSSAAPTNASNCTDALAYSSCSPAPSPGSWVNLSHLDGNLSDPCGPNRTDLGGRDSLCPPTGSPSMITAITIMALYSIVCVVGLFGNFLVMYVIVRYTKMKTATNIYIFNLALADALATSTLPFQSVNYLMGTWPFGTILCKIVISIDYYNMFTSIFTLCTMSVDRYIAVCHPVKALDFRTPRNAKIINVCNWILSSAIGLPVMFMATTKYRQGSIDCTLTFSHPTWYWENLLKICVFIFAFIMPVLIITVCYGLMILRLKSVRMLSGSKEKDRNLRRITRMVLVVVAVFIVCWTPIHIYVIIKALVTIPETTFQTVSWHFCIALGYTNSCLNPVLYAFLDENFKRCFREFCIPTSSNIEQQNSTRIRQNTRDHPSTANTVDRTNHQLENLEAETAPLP
- assay_protocol: Agonist activity at human MOR expressed in CHO cells assessed as inhibition of forskolin-induced cAMP accumulation after 30 mins by luminescence assay
readout_name: EC50

As a guide, the following entries are already answered.
COC(=O)[C@@H]1C[C@H](OC(C)=O)C(=O)[C@H]2[C@@]1(C)CC[C@H]1C(=O)O[C@H](c3ccoc3Br)C[C@]21C	≥ 10 µM
C#Cc1occc1[C@@H]1C[C@]2(C)[C@H]3C(=O)[C@@H](OC(C)=O)C[C@@H](C(=O)OC)[C@]3(C)CC[C@H]2C(=O)O1	≥ 10 µM

We next turn to a different compound, shown below.
**Q:** Please report the measured EC50 for COC(=O)[C@@H]1C[C@H](OC(C)=O)C(=O)[C@H]2[C@@]1(C)CC[C@H]1C(=O)O[C@H](c3ccoc3C)C[C@]21C
**A:** ≥ 10 µM

---

- measurement_target: Kappa-type opioid receptor (Homo sapiens)
- assay_protocol: Agonist activity at human KOR expressed in CHO cells assessed as inhibition of forskolin-induced cAMP accumulation after 30 mins by luminescence assay
readout_name: pEC50
Give bare numbers, as −log10 of the molar value.

COC(=O)[C@@H]1C[C@H](OC(C)=O)C(=O)[C@H]2[C@@]1(C)CC[C@H]1C(=O)O[C@H](c3ccoc3-c3cccc(C)c3)C[C@]21C	8.47
COC(=O)[C@@H]1C[C@H](OC(C)=O)C(=O)[C@H]2[C@@]1(C)CC[C@H]1C(=O)O[C@H](c3ccoc3-c3ccc(C)cc3)C[C@]21C	8.64
COC(=O)[C@@H]1C[C@H](OC(C)=O)C(=O)[C@H]2[C@@]1(C)CC[C@H]1C(=O)O[C@H](c3cc(C)oc3C)C[C@]21C	6.60
COC(=O)[C@@H]1C[C@H](OC(C)=O)C(=O)[C@H]2[C@@]1(C)CC[C@H]1C(=O)O[C@H](c3ccoc3C=O)C[C@]21C	8.14
COC(=O)[C@@H]1C[C@H](OC(C)=O)C(=O)[C@H]2[C@@]1(C)CC[C@H]1C(=O)O[C@H](c3ccoc3CO)C[C@]21C	8.48

Fill in pEC50 for each of the 5 compounds listed.
1. COC(=O)[C@@H]1C[C@H](OC(C)=O)C(=O)[C@H]2[C@@]1(C)CC[C@H]1C(=O)O[C@H](c3ccoc3-c3ccc(F)cc3)C[C@]21C
2. COC(=O)[C@@H]1C[C@H](OC(C)=O)C(=O)[C@H]2[C@@]1(C)CC[C@H]1C(=O)O[C@H](c3ccoc3-c3ccc([N+](=O)[O-])cc3)C[C@]21C
3. COC(=O)[C@@H]1C[C@H](OC(C)=O)C(=O)[C@H]2[C@@]1(C)CC[C@H]1C(=O)O[C@H](c3ccoc3-c3ccccc3C(F)(F)F)C[C@]21C
4. COC(=O)[C@@H]1C[C@H](OC(C)=O)C(=O)[C@H]2[C@@]1(C)CC[C@H]1C(=O)O[C@H](c3ccoc3-c3ccccc3C)C[C@]21C
5. CC#Cc1occc1[C@@H]1C[C@]2(C)[C@H]3C(=O)[C@@H](OC(C)=O)C[C@@H](C(=O)OC)[C@]3(C)CC[C@H]2C(=O)O1

**A:**
7.27
6.77
8.08
8.27
7.59

---

- measurement_target: Kappa-type opioid receptor (Homo sapiens)
- assay_protocol: Agonist activity at human KOR expressed in CHO cells assessed as inhibition of forskolin-induced cAMP accumulation after 30 mins by luminescence assay
- Type: functional, cell-based
I'd be grateful if you could share measured EC50 for these entries.
Answer with the number, then the unit.

Some compounds with known EC50 results, for comparison:
COC(=O)[C@@H]1C[C@H](OC(C)=O)C(=O)[C@H]2[C@@]1(C)CC[C@H]1C(=O)O[C@H](c3cc(Br)oc3Br)C[C@]21C	240 nM
COC(=O)[C@@H]1C[C@H](OC(C)=O)C(=O)[C@H]2[C@@]1(C)CC[C@H]1C(=O)O[C@H](c3ccoc3-c3cccc4ccccc34)C[C@]21C	37 nM
COC(=O)[C@@H]1C[C@H](OC(C)=O)C(=O)[C@H]2[C@@]1(C)CC[C@H]1C(=O)O[C@H](c3ccoc3C#N)C[C@]21C	9.4 nM
CCCC#Cc1occc1[C@@H]1C[C@]2(C)[C@H]3C(=O)[C@@H](OC(C)=O)C[C@@H](C(=O)OC)[C@]3(C)CC[C@H]2C(=O)O1	9250 nM
COC(=O)[C@@H]1C[C@H](OC(C)=O)C(=O)[C@H]2[C@@]1(C)CC[C@H]1C(=O)O[C@H](c3ccoc3-c3ccccc3[N+](=O)[O-])C[C@]21C	360 nM
COC(=O)[C@@H]1C[C@H](OC(C)=O)C(=O)[C@H]2[C@@]1(C)CC[C@H]1C(=O)O[C@H](c3ccoc3-c3ccccc3)C[C@]21C	1.3 nM
COC(=O)[C@@H]1C[C@H](OC(C)=O)C(=O)[C@H]2[C@@]1(C)CC[C@H]1C(=O)O[C@H](c3ccoc3-c3ccco3)C[C@]21C	6.7 nM
COC(=O)[C@@H]1C[C@H](OC(C)=O)C(=O)[C@H]2[C@@]1(C)CC[C@H]1C(=O)O[C@H](c3ccoc3-c3ccc(OC)cc3)C[C@]21C	16 nM

Go through the list and state EC50 for each entry.
1. COC(=O)[C@@H]1C[C@H](OC(C)=O)C(=O)[C@H]2[C@@]1(C)CC[C@H]1C(=O)O[C@H](c3ccoc3CCc3ccccc3)C[C@]21C
2. C#Cc1occc1[C@@H]1C[C@]2(C)[C@H]3C(=O)[C@@H](OC(C)=O)C[C@@H](C(=O)OC)[C@]3(C)CC[C@H]2C(=O)O1
3. COC(=O)[C@@H]1C[C@H](OC(C)=O)C(=O)[C@H]2[C@@]1(C)CC[C@H]1C(=O)O[C@H](c3ccoc3-c3ccc(N)cc3)C[C@]21C

**A:**
38 nM
0.019 nM
620 nM

I'm hoping you can list EC50 for every compound here, please.
1. COC(=O)[C@@H]1C[C@H](OC(C)=O)C(=O)[C@H]2[C@@]1(C)CC[C@H]1C(=O)O[C@H](c3ccoc3/C=C/c3ccccc3)C[C@]21C
2. C=Cc1occc1[C@@H]1C[C@]2(C)[C@H]3C(=O)[C@@H](OC(C)=O)C[C@@H](C(=O)OC)[C@]3(C)CC[C@H]2C(=O)O1

**A:**
1: 20 nM; 2: 0.96 nM

**Q:** Output reported EC50 of the compound COC(=O)[C@@H]1C[C@H](OC(C)=O)C(=O)[C@H]2[C@@]1(C)CC[C@H]1C(=O)O[C@H](c3ccoc3-c3ccsc3)C[C@]21C on Kappa-type opioid receptor (Homo sapiens).
**A:** 4.3 nM
